test system: glycated bovine serum albumin (AGE-BSA) cross-linking to rat tail tendon collagen; details: 4 h, pH 7.4
pIC50: −log10 of the molar value.
outcomeMeasure: pIC50

[I] CC(C=NNc1ccc(C(=O)O)cc1)=NNc1ccc(C(=O)O)cc1
[II] CC(C=NNc1ccccc1C(=O)O)=NNc1ccccc1C(=O)O
Exercise: Of the two listed items, I and II , which carries the larger pIC50 figure? Give the chosen item's label as your response.
Key: II
(II: 4.40, I: 1.94)
